Origin of measurements: patent US20190194358A1

- TESTED_TARGET: T1, Tumor Necrosis Factor-alpha (UniProt P01375 77-233)
- T1 construct: Immobilised on pipette tips or SPR chips (amine coupling or biotin capture); also called TNF-α; TNF-alpha
- T1 sequence (P01375 77-233 limits assumed): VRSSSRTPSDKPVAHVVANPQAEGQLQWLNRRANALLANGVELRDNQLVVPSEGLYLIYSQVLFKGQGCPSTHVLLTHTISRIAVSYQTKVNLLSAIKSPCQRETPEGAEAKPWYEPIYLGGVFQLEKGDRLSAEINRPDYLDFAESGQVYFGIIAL
- METHOD: SPR (Biacore A100), TNF-α captured, equilibrium response over a concentration series
Label key: Met means Kd under 60 µM; Not met means Kd of 60 µM or more.

## Input API: query returns whether the binder falls strictly under 60 µM in Kd. Query: FERYPLMMPWSFLQSRQGSC [TNF1 D4Y point-mutant]
## Output Met

## Input API: query returns whether the binder falls strictly under 60 µM in Kd. Query: FERDYLMMPWSFLQSRQGSC [TNF1 P5Y point-mutant]
## Output Met

## Input API: query returns whether the binder falls strictly under 60 µM in Kd. Query: FERDPLMMPWKFLQSRQGSC [TNF1 S11K point-mutant]
## Output Met

## Input API: query returns whether the binder falls strictly under 60 µM in Kd. Query: FERDPLMMPWSFLQSRQGSC [TNF1 lead peptide]
## Output Not met

## Input API: query returns whether the binder falls strictly under 60 µM in Kd. Query: FERDPLKMPWSFLQSRQGSC [TNF1 M7K point-mutant]
## Output Met
